The reported measurements were obtained from patent US11905294B2.

- measurementTarget: PI3K (p110α/p85α) (Homo sapiens)
- Sequence (P42336 whole entry): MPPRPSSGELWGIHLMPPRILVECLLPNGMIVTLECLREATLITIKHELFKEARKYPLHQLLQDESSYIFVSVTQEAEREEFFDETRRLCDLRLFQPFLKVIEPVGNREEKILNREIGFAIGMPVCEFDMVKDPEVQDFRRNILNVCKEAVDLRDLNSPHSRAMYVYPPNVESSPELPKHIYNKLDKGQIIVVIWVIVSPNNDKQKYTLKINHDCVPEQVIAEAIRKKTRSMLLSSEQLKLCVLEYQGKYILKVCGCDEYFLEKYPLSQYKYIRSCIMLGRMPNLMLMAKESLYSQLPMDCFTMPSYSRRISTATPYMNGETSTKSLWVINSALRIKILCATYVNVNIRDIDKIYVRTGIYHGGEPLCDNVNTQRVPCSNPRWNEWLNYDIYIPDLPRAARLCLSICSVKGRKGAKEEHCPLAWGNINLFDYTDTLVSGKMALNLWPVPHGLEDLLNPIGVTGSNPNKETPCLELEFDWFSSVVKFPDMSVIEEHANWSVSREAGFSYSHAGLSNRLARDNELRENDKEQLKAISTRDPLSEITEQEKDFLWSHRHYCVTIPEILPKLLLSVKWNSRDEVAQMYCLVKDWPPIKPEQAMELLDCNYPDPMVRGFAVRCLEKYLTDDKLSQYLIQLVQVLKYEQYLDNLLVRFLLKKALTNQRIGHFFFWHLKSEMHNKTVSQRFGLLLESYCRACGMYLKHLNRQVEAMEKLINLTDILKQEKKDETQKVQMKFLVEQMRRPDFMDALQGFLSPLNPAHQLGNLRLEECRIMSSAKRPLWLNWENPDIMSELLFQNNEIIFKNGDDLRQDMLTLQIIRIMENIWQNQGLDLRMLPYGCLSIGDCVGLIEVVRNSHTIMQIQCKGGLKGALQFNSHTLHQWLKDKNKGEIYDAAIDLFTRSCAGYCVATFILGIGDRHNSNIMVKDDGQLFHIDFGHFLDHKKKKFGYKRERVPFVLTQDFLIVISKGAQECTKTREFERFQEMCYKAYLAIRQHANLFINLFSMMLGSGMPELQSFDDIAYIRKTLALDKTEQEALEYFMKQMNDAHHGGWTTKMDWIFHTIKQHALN
- Sequence (P27986 whole entry partner): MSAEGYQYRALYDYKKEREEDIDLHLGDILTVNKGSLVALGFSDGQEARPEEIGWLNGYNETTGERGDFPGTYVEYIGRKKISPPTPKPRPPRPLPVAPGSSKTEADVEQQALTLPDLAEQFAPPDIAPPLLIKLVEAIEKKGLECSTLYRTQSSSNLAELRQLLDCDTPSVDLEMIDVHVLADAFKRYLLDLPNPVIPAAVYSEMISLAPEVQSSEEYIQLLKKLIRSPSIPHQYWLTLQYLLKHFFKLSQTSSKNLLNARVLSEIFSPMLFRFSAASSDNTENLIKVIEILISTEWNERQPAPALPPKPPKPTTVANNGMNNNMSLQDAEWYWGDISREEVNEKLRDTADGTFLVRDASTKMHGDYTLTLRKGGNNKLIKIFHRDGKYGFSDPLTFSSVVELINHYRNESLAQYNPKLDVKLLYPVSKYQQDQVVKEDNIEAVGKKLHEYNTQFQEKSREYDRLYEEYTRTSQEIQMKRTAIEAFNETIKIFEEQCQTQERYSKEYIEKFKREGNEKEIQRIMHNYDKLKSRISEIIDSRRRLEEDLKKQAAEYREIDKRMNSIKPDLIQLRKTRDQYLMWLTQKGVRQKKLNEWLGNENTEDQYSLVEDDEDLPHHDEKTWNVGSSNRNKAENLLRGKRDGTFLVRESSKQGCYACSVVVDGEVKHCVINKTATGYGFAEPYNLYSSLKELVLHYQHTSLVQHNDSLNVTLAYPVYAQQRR
- procedureDetails: PI3Kα assay (ADP-Glo Kinase Assay)
- Format: biochemical
- measurementContext: recombinant enzyme; IC50 (nM) or max inhibition (%) at 0.5 μM
# reported IC50; entries follow
Answer format: numeric, nM implied, no suffix.

Take a look at these entries with their results.
>>> measuredvalue("Cc1nc([C@@H](C)c2cc(Cl)c(F)c(C(=O)NC3(CO)CC3)c2OC(C)C)n2ccnc(N)c12 [Compound 5A]")
21000
>>> measuredvalue("CNC(=O)c1c(F)c(Cl)cc([C@H](C)c2nc(C)c3c(N)nccn23)c1OC(C)C [Compound 27]")
32000
>>> measuredvalue("Cc1nc([C@@H](C)c2cc(Cl)c(F)c(C(=O)N[C@H]3CC[C@@H](O)CC3)c2OC(C)C)n2ccnc(N)c12 [Compound 62]")
17000

Fill in: IC50 on PI3K (p110α/p85α) (Homo sapiens), entry Cc1nc(C(C)c2cc(Cl)c(F)c(C(=O)N3CC(O)C3)c2OC(C)C)n2ccnc(N)c12 (stereo not shown) [Compound 3]
49000

Fill in: IC50 on PI3K (p110α/p85α) (Homo sapiens), entry Cc1nc([C@@H](C)c2cc(Cl)c(F)c(C(=O)N[C@H]3C[C@H](O)C3)c2OC(C)C)n2ccnc(N)c12 [Compound 61]
21000

Fill in: IC50 on PI3K (p110α/p85α) (Homo sapiens), entry Cc1nc(C(C)c2cc(Cl)c(F)c(C(=O)NC3CC3)c2OC(C)C)n2ccnc(N)c12 (stereo not shown) [Compound 11]
31000
